The origin of these recorded values is paper PMC9090415.

Assay system: P. falciparum apicoplast DNA polymerase (Pf-apPOL) (Plasmodium falciparum, UniProt Q8ILY1)
Sequence (Q8ILY1 entry or part of it): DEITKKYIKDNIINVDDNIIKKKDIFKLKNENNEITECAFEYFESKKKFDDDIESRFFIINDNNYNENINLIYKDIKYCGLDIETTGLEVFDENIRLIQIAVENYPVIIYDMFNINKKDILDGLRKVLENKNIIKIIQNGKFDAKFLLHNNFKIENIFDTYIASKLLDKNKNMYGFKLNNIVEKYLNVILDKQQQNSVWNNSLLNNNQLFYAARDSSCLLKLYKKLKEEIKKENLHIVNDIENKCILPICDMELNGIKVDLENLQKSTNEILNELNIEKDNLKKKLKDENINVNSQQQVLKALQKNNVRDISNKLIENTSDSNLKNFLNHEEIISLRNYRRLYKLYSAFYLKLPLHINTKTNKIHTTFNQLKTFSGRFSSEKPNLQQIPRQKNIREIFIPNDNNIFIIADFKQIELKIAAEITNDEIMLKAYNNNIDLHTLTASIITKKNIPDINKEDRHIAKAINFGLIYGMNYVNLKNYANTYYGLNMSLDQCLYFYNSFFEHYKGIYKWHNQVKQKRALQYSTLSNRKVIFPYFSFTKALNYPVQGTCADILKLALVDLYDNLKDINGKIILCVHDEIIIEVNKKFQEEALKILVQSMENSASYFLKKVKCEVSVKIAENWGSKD
Test protocol: Fluorescence-based high-throughput DNA polymerase assay (molecular beacon), primary screen and dose-response;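 note: compound concentration given in µM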
Type: biochemical
Experimental parameters: conc. 80; 40'; DRC-2
Kindly return yes (1) if reported % inhibition Apol 40' is no lower than 70%; return no (0) if it is lower.

| Compound | Assigned class |
| --- | --- |
| CC(=O)Nc1cc(C(=O)NC(C)C)c2ccc(C)nc2c1 | no (0) |

Is it the case that O=C1C(=Cc2ccncc2)Oc2c1ccc1c2CN(Cc2ccc3c(c2)OCO3)CO1 has % inhibition Apol 40' reaching or exceeding 70%?
no (0)

Quick check: does O=C(CSc1nnc(-c2ccncc2)[nH]1)c1ccc(O)c(O)c1 have % inhibition Apol 40' greater than or equal to 70%?
yes (1)

Confirm if % inhibition Apol 40' reported for the compound COc1ccc(NC(=O)Cn2ccc3c(=O)[nH]ccc32)cc1 [Molecule 13, COc1ccc(cc1)NC(=O)Cn1ccc2c1cc[nH]c2=O] is 70% or above.
no (0)

Please indicate if the recorded % inhibition Apol 40' for O=c1cc(-c2ccccc2Cl)oc2c(NS(=O)(=O)c3cc(Cl)cc(Cl)c3O)ccc(O)c12 meets or exceeds 70%.
yes (1)
